Target: SKIV2L (UniProt Q15477)
Sequence (Q15477 whole entry): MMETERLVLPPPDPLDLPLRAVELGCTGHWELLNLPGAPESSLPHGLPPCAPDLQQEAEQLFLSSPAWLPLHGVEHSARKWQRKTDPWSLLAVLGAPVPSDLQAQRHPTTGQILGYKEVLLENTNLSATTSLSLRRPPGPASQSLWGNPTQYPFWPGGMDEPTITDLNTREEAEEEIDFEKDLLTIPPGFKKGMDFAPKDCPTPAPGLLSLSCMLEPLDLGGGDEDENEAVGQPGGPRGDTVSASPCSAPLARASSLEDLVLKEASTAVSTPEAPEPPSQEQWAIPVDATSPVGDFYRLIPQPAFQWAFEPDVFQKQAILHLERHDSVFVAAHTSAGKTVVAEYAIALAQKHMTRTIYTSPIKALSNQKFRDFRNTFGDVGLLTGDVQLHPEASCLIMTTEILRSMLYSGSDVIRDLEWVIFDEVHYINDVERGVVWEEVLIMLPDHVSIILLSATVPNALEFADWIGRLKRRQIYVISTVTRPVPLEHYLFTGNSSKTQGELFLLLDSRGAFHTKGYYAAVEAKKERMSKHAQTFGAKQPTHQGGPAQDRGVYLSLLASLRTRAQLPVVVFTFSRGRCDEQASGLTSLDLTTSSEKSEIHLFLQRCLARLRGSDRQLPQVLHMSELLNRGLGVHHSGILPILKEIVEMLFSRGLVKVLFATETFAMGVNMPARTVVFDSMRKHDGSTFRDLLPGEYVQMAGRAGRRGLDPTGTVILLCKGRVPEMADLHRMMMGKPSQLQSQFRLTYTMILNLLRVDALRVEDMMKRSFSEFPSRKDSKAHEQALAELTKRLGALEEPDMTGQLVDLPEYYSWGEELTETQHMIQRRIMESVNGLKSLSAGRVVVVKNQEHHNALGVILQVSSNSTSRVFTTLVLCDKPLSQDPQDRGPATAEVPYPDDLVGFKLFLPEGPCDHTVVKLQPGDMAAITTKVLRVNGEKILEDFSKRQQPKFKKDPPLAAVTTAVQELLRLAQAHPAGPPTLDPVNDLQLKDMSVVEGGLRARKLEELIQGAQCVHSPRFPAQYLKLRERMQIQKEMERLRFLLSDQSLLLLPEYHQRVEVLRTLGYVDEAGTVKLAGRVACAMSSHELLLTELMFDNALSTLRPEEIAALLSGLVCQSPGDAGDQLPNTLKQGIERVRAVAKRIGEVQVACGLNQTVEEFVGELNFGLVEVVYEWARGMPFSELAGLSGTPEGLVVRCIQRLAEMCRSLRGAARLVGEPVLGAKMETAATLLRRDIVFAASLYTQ
Experiment: EC50 of free RNA motif oligo competing protein binding to immobilised probe
Attribute measured: EC50 (nM)
Please give a number only; it is taken to be in nM.

# input Any idea what EC50 came out for `UAUUUAU` on SKIV2L (UniProt Q15477)?
# output 1950

* * *

Biological target: MRPS9 (UniProt P82933)
Assay: EC50 of free RNA motif oligo competing protein binding to immobilised probe
Attribute measured: EC50 (nM)
Dear colleague, please return just the value in nM, with no unit written.

# input Dear colleague, I am looking for the recorded EC50 of the following sequence: `UAUUUAU`
# output 29.4
